- target-or-test-system: Cytochrome P450 2C19 (Homo sapiens) (UniProt P33261)
- Sequence (P33261 whole entry, looked up): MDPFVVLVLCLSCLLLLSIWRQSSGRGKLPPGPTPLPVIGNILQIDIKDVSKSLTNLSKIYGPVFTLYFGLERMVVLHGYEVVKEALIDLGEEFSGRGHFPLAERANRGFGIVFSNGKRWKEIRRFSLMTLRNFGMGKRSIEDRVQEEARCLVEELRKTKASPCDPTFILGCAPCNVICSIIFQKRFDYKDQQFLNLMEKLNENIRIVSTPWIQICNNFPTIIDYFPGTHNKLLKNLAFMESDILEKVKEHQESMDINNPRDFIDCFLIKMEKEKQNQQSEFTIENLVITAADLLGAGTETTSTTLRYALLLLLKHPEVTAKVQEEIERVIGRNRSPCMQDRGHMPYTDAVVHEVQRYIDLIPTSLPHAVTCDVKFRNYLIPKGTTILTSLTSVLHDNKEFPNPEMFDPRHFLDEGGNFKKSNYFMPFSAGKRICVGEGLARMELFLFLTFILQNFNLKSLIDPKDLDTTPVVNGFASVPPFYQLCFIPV
- procedure-details: Cytochrome panel assay with activity outcomes
- experimental-parameters: recombinant CYP, pro-luciferin dealkylation, luminescence, p450-cyp2c19; series mostly up to 57.1 µM
In all, about 16,000 compounds went through this assay and about 5,800 (36%) were called active. Roughly 23% stayed inconclusive and do not appear here. Calls follow the shape of the dose curve; as a rule, active = well fitted curve in the direction sought with a large enough effect; inconclusive = small, poorly fitted or top-dose-only effect, or effect the other way; inactive = no such curve, though single readings can be large or run the other way. The list shows a part of the results.
Please answer using one outcome listed in active, inactive

COCCNC(=S)NC1CC2CCCC(C1)N2Cc1cccs1 (stereo not drawn): inactive

--- query ---
Could you kindly confirm the outcome this assay logged for C[C@@H](N)Cn1ccc2cc(F)c(Cl)cc21 ?
inactive
